Each record here notes measured inhibition of aggregation.
test: reduction of polyQ htt aggregates in cells – imaging, exon1htt(103Q)mCFP cells, high-content imaging, primary screen (AID 483); details: exon1htt(103Q)mCFP cell line, aggregate imaging, at 2 µM; stronger effect = higher value;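 note: compound exposure lasted 3 days before fixation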
Report only the number, with the unit % understood.

| Compound | inhibition of aggregation (%) |
| --- | --- |
| CC(=O)Nc1c(Cl)n(C(C)=O)c2ccccc12 | -9.1 |

Quick one: inhibition of aggregation of Nc1nc(C2C(=O)CCCC2=O)cs1 ?
-1.6

// lookup inhibition of aggregation for CC(=O)N1CCc2cc(S(=O)(=O)NC(CC(C)C)C(=O)N3CCn4c3nc3ccccc34)ccc21 (centres undefined)
8.8

Record request: inhibition of aggregation value, item CN(C)c1nc(N)nc(CSc2nnnn2-c2cccc3ccccc23)n1
27.3

Form field: reported inhibition of aggregation of Cc1ccc(F)cc1NC(=O)c1cccc2nccnc12
-49.2
